- System Tested: T1, PUF4 RNA-binding domain (Saccharomyces cerevisiae, UniProt P25339 537-888)
- T1 sequence: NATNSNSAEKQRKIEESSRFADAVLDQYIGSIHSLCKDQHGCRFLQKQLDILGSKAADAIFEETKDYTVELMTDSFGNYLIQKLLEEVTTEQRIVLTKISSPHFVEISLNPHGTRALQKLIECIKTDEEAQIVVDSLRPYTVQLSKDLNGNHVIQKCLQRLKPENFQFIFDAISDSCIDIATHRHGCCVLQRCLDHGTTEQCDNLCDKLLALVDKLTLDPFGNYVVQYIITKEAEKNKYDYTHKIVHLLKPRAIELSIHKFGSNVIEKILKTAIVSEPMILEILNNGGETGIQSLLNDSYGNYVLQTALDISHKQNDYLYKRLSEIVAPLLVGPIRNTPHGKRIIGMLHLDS
- Test Details: Mg; RNA-MaP; 20 mM Na-HEPES pH 7.4, 30 mM KOAc, 0.75 mM MgCl2, 0.1% Tween-20, 5% glycerol, 0.1 mg/mL BSA, 2 mM DTT; 25 C; 0.0125-409.6 nM protein
- Condition Summary: tags: N-His6-TEV cleaved; C-SNAP kept, Cy3B-labelled; label: tethered on chip by stalled RNA polymerase
pKd: −log10 of the molar value.
I would appreciate it if you labelled entries Yes when pKd is 8 or higher, otherwise No.

Id_ii_S4_P4E.2_K4.1_C4.2_[C-2A]_H4.1_A4.1_F4.1_T4.2_[G10T] (ssRNA) RNA: UUUGACAACUGAUCGUUCUUUCUAUUGUAUAUUAUUUUCUUUCUCGAUCAGUUGUCUUU | Yes
Ib_S4_P5E.1_K5.1_C5.1_H5.1_[T1C]_A5.1_[A7G]_F5.1_T5.1 (ssRNA) RNA: UUUGACAACUGAUCGUUCUUUCUCGUAUUGUUAUUCUUUCUCGAUCAGUUGUCUUU | No
Ie_S2_P3E.2_K3.1_C3.2_H3.1_[+2TCTCT]_A3.1_F3.1_T3.2 (ssRNA) RNA: UUUGAUUAAUAUGAUAUCGUUCUUUCUCUUGUCUCUUAUAUAUAUUCUUUCUCGAUAUCAUAUUAAUCUUU | No
UCUCUUAGUAUUAUUGUCUCUU (ssRNA) [Ib_S1_P5E.1_K5.1_C5.1_H5.1_[T1A]_A5.1_F5.1_[A10G]_T5.1] | No
Id_ii_S4_P4E.3_K4.2_C4.2_[C-2T]_[T-1G]_H4.2_A4.1_F4.1_T4.2_[G10A]_[T11C] (ssRNA) RNA: UUUGACAACUGAUCGUUCUUUCUUGUAUAUAUUAACUUCUUUCUCGAUCAGUUGUCUUU | Yes
